koff by entry:
- study system: T1, human CD47ECD mouse Fc protein (human, UniProt Q08722 19-139, limits assumed)
- T1 construct: extracellular domain; also called HuCD47ECD muFc; bivalent CD47ECD muFc protein; not shown: mouse Fc
- T1 sequence (Q08722 19-139 limits assumed): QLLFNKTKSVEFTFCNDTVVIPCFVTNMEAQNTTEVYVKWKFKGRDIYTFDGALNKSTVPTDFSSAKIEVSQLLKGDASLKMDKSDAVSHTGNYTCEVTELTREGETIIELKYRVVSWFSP
- assay notes: SPR (Biacore 3000); antibody captured on anti-human Fc chip, bivalent HuCD47ECD muFc injected
- Description: The binding affinities of anti-human CD47 mouse/human chimeric antibodies to human CD47 protein were determined with BIACORE™ using a capture method. The anti-human CD47 mouse/human chimeric antibodies were captured using anti-human Fc antibody coated on a CMS chip. Serial dilutions of human CD47ECD mouse Fc protein starting from 400 nM were injected over captured antibody for 1 mins at a flow rate of 300/ml. […]
Entry rule: numbers only, all in s⁻¹.

Example results:
| binder | koff / s⁻¹ |
| --- | --- |
| D125S3 mouse/human chimeric anti-human CD47 antibody (antibody, V domains shown, also called chimeric D125S3) VH: EVQLVESGGDLVKPGGSLNLSCAASGFTFSDYGMSWVRQTPDMRLEWVATISKYGTYTSYPDSVKGRFTISRSNAKNTLYLQMSSLKSADTALYYCARRFFGNYNYWYFDVWGAGTTVTVSS VL: DIVLTQSPASLAVSLGQRATFSCRASESVDEFGISYIHWYKKSPGQPPKLLIYRASTLESGISARFSGSGSGTDFTLTINPVETDDVATYYCQQSNQDPLTFGAGTKLELK | 7.72e-05 |
| D41S2 mouse/human chimeric anti-human CD47 antibody (antibody, V domains shown, also called chimeric D41S2) VH: EVQLQQSVAELVRPGASVKLSCTPSGFNIKNTYIYWVRQRPEQGLEWIGRIDPANGNTKDAPKFQGKATMTADTSSNTAYLQLSSLTSEDTAIYYCARGYGSGFAYWGQGTLVTVSA VL: DIQMTQTTSSLSASLGDRVTISCRASQDISNHLNWYQQKPDGTVKLLIYYTSRLHSGVPSRFSGSGSGTDYSLTISNLEQEDIATYFCQQGSTLPFTFGSGTKLEIK | 3.34e-05 |

Next item in the queue.
Inquiry: Form field: reported koff of D28S1 mouse/human chimeric anti-human CD47 antibody (antibody, V domains shown, also called chimeric D28S1; D28S1VH/VL) VH: EVQLVESGGDLVKPGGSLKLSCAASGFTFTSYGMSWVRQTPDKRLEWVATINTGGSYTYYPDSVKGRFTISRDNAKNTLYLQMSSLKSEDTAMYYCARHTIKSLMDYWGQGTSVTVSS VL: ETTVTQSPASLSMAIGEKVTIRCITSTDIDDDMNWYQQKPGEPPKLLISEGNTLRPGVPSRFSSSGYGTDFVFIIENMFSEDVADYYCLQSDNLPYTFGSGTKLEIK
Reply text: 0.000413
